System: Staphylococcus aureus X400
Assay: MIC, standard agar-dilution assay (Table II)
Type: cell-based
Design: unit not given here
Details: Staphylococcus aureus X400, methicillin-resistant strain
Method: The MIC's in Table II were determined by standard agar-dilution assays. The MIC's in Table III were obtained using a conventional broth-dilution microtiter test.
Metric name: minimal inhibitory concentration (MIC)

Task: Identify the reported minimal inhibitory concentration (MIC) for the following entry. CCC1OC(=O)CC(O)C(C)C(OC2OC(C)C(OC(=O)CC(C)C)C(N(C)C)C2OC(C)=O)C(CC=O)CC(C)C(=O)C=CC(C)=CC1COC(=O)CC(C)C (stereo not shown)
Result: 2

Task: Identify the reported minimal inhibitory concentration (MIC) for the following entry. CCC1OC(=O)CC(O)C(C)C(OC2OC(C)C(OC(C)=O)C(N(C)C)C2OC(C)=O)C(CC=O)CC(C)C(=O)C=CC(C)=CC1COC(C)=O (stereo not shown)
Result: 1

Task: Identify the reported minimal inhibitory concentration (MIC) for the following entry. CCCCC(=O)OCC1C=C(C)C=CC(=O)C(C)CC(CC=O)C(OC2OC(C)C(O)C(N(C)C)C2O)C(C)C(O)CC(=O)OC1CC (stereo not shown)
Result: 0.5

Task: Identify the reported minimal inhibitory concentration (MIC) for the following entry. CCC(=O)OC1C(OC2C(CC=O)CC(C)C(=O)C=CC(C)=CC(CO)C(CC)OC(=O)CC(O)C2C)OC(C)C(O)C1N(C)C (stereo not shown)
Result: 4

Task: Identify the reported minimal inhibitory concentration (MIC) for the following entry. CCC1OC(=O)CC(O)C(C)C(OC2OC(C)C(O)C(N(C)C)C2OC(C)=O)C(CC=O)CC(C)C(=O)C=CC(C)=CC1COC(=O)Cc1ccccc1 (stereo not shown)
Result: 0.25

Task: Identify the reported minimal inhibitory concentration (MIC) for the following entry. CCC1OC(=O)CC(O)C(C)C(OC2OC(C)C(O)C(N(C)C)C2OC(C)=O)C(CC=O)CC(C)C(=O)C=CC(C)=CC1COC(=O)CCCCc1ccccc1 (stereo not shown)
Result: 0.25

Task: Identify the reported minimal inhibitory concentration (MIC) for the following entry. CCC1OC(=O)CC(O)C(C)C(OC2OC(C)C(OC(C)=O)C(N(C)C)C2OC(C)=O)C(CC=O)CC(C)C(=O)C=CC(C)=CC1COS(=O)(=O)c1ccc(NC(C)=O)cc1 (stereo not shown)
Result: 2

Task: Identify the reported minimal inhibitory concentration (MIC) for the following entry. CCC(=O)OC1C(OC2C(CC=O)CC(C)C(=O)C=CC(C)=CC(COC(C)=O)C(CC)OC(=O)CC(O)C2C)OC(C)C(O)C1N(C)C (stereo not shown)
Result: 1

Task: Identify the reported minimal inhibitory concentration (MIC) for the following entry. CCC(=O)OCC1C=C(C)C=CC(=O)C(C)CC(CC=O)C(OC2OC(C)C(OC(=O)CC)C(N(C)C)C2OC(=O)CC)C(C)C(O)CC(=O)OC1CC (stereo not shown)
Result: 0.5

Task: Identify the reported minimal inhibitory concentration (MIC) for the following entry. CCC1OC(=O)CC(O)C(C)C(OC2OC(C)C(O)C(N(C)C)C2OC(=O)Cc2ccccc2)C(CC=O)CC(C)C(=O)C=CC(C)=CC1CO (stereo not shown)
Result: 2

* * *

Task for the reader: assign each of the following compounds its reported minimal inhibitory concentration (MIC).
System: Staphylococcus aureus X400
Test: MIC, standard agar-dilution assay (Table II)
Format: cell-based
Set-up: unit not given here
Details: Staphylococcus aureus X400, methicillin-resistant strain
Respond numerically, and do not add a unit to the figure.

Task: Identify the reported minimal inhibitory concentration (MIC) for the following entry. CCC1OC(=O)CC(O)C(C)C(OC2OC(C)C(OC(=O)CC(C)C)C(N(C)C)C2OC(C)=O)C(CC=O)CC(C)C(=O)C=CC(C)=CC1CO (stereo not drawn) [Compound 49, 2'-O-Acetyl-4'-O-isovaleryl-OMT]
Result: 4

Task: Identify the reported minimal inhibitory concentration (MIC) for the following entry. CCC1OC(=O)CC(O)C(C)C(OC2OC(C)C(O)C(N(C)C)C2O)C(CC=O)CC(C)C(=O)C=CC(C)=CC1COC(=O)Cc1ccccc1 (stereo not drawn) [Compound 29, 23-O-Phenylacetyl-OMT]
Result: 0.125

Task: Identify the reported minimal inhibitory concentration (MIC) for the following entry. CCC1OC(=O)CC(O)C(C)C(OC2OC(C)C(O)C(N(C)C)C2O)C(CC=O)CC(C)C(=O)C=CC(C)=CC1COC(=O)C(C)C (stereo not drawn) [Compound 18]
Result: 0.5

Task: Identify the reported minimal inhibitory concentration (MIC) for the following entry. CCC1OC(=O)CC(O)C(C)C(OC2OC(C)C(OC(C)=O)C(N(C)C)C2OC(C)=O)C(CC=O)CC(C)C(=O)C=CC(C)=CC1COC(=O)Cc1ccccc1 (stereo not drawn) [Compound 27, 2',4'-Di-O-acetyl-23-O-phenylacetyl-OMT]
Result: 0.25

Task: Identify the reported minimal inhibitory concentration (MIC) for the following entry. CCC1OC(=O)CC(O)C(C)C(OC2OC(C)C(OC(=O)c3ccccc3)C(N(C)C)C2OC(=O)c2ccccc2)C(CC=O)CC(C)C(=O)C=CC(C)=CC1CO (stereo not drawn) [Compound 5, 2',4'-Di-O-benzoyl-OMT]
Result: 64

Task: Identify the reported minimal inhibitory concentration (MIC) for the following entry. CCC1OC(=O)CC(O)C(C)C(OC2OC(C)C(OC(=O)CC(C)C)C(N(C)C)C2OC(C)=O)C(CC=O)CC(C)C(=O)C=CC(C)=CC1COC(C)=O (stereo not drawn) [Compound 51, 2',23-Di-O-Acetyl-4'-O-isovaleryl-OMT]
Result: 1

Task: Identify the reported minimal inhibitory concentration (MIC) for the following entry. CCC1OC(=O)CC(O)C(C)C(OC2OC(C)C(O)C(N(C)C)C2O)C(CC=O)CC(C)C(=O)C=CC(C)=CC1COC(=O)CC(C)C (stereo not drawn) [Compound 22]
Result: 0.5

Task: Identify the reported minimal inhibitory concentration (MIC) for the following entry. CCC1OC(=O)CC(O)C(C)C(OC2OC(C)C(O)C(N(C)C)C2OC(C)=O)C(CC=O)CC(C)C(=O)C=CC(C)=CC1CO (stereo not drawn) [Compound 1, 2'-O-Acetyl-OMT]
Result: 4

Task: Identify the reported minimal inhibitory concentration (MIC) for the following entry. CCC1OC(=O)CC(O)C(C)C(OC2OC(C)C(O)C(N(C)C)C2O)C(CC=O)CC(C)C(=O)C=CC(C)=CC1COS(=O)(=O)c1ccc(C)cc1 (stereo not drawn) [Compound 46]
Result: 0.25

Task: Identify the reported minimal inhibitory concentration (MIC) for the following entry. CCC1OC(=O)CC(O)C(C)C(OC2OC(C)C(O)C(N(C)C)C2O)C(CC=O)CC(C)C(=O)C=CC(C)=CC1COC(=O)[C@H](O)c1ccccc1 (stereo partly drawn) [Compound 42, 23-O-Mandeloyl-OMT]
Result: 0.5

Task: Identify the reported minimal inhibitory concentration (MIC) for the following entry. CCC1OC(=O)CC(O)C(C)C(OC2OC(C)C(O)C(N(C)C)C2OC(C)=O)C(CC=O)CC(C)C(=O)C=CC(C)=CC1COC(=O)C=Cc1ccccc1 (stereo not drawn) [Compound 33]
Result: 0.5

Task: Identify the reported minimal inhibitory concentration (MIC) for the following entry. CCC1OC(=O)CC(O)C(C)C(OC2OC(C)C(O)C(N(C)C)C2O)C(CC=O)CC(C)C(=O)C=CC(C)=CC1COP(=O)(Oc1ccccc1)Oc1ccccc1 (stereo not drawn) [Compound 48, 23-O-(Diphenylphosphoryl)-OMT]
Result: 0.25

Task: Identify the reported minimal inhibitory concentration (MIC) for the following entry. CCC1OC(=O)CC(O)C(C)C(OC2OC(C)C(O)C(N(C)C)C2OC(C)=O)C(CC=O)CC(C)C(=O)C=CC(C)=CC1COC(=O)c1ccc2ccccc2c1 (stereo not drawn) [Compound 58]
Result: 0.5

Task: Identify the reported minimal inhibitory concentration (MIC) for the following entry. CCCCCCCC(=O)OCC1C=C(C)C=CC(=O)C(C)CC(CC=O)C(OC2OC(C)C(O)C(N(C)C)C2OC(C)=O)C(C)C(O)CC(=O)OC1CC (stereo not drawn) [Compound 25]
Result: 0.5

Task: Identify the reported minimal inhibitory concentration (MIC) for the following entry. CCC(=O)OC1C(C)OC(OC2C(CC=O)CC(C)C(=O)C=CC(C)=CC(CO)C(CC)OC(=O)CC(O)C2C)C(OC(=O)CC)C1N(C)C (stereo not drawn) [Compound 4]
Result: 2

Task: Identify the reported minimal inhibitory concentration (MIC) for the following entry. CCC1OC(=O)CC(O)C(C)C(OC2OC(C)C(O)C(N(C)C)C2O)C(CC=O)CC(C)C(=O)C=CC(C)=CC1COC(=O)Cc1cc(OC)ccc1OC (stereo not drawn) [Compound 63]
Result: 0.25

Task: Identify the reported minimal inhibitory concentration (MIC) for the following entry. CCC1OC(=O)CC(O)C(C)C(OC2OC(C)C(O)C(N(C)C)C2OC(C)=O)C(CC=O)CC(C)C(=O)C=CC(C)=CC1COC(=O)Cc1cc(OC)ccc1OC (stereo not drawn) [Compound 62]
Result: 0.25

Task: Identify the reported minimal inhibitory concentration (MIC) for the following entry. CCCC(=O)OCC1C=C(C)C=CC(=O)C(C)CC(CC=O)C(OC2OC(C)C(OC(C)=O)C(N(C)C)C2OC(C)=O)C(C)C(O)CC(=O)OC1CC (stereo not drawn) [Compound 15]
Result: 0.5

Task: Identify the reported minimal inhibitory concentration (MIC) for the following entry. CCC1OC(=O)CC(O)C(C)C(OC2OC(C)C(O)C(N(C)C)C2OC(C)=O)C(CC=O)CC(C)C(=O)C=CC(C)=CC1COC(=O)CCCC(=O)OC (stereo not drawn) [Compound 71]
Result: 0.25

Task: Identify the reported minimal inhibitory concentration (MIC) for the following entry. CCC1OC(=O)CC(O)C(C)C(OC2OC(C)C(O)C(N(C)C)C2OC(C)=O)C(CC=O)CC(C)C(=O)C=CC(C)=CC1COC(=O)OC (stereo not drawn) [Compound 73]
Result: 0.25

Task: Identify the reported minimal inhibitory concentration (MIC) for the following entry. CCC1OC(=O)CC(O)C(C)C(OC2OC(C)C(O)C(N(C)C)C2O)C(CC=O)CC(C)C(=O)C=CC(C)=CC1COC(=O)OC (stereo not drawn) [Compound 74]
Result: 0.5
